Biological target: Bcr/Abl fusion protein (Homo sapiens, UniProt P00519)
Sequence (P00519 whole entry, the tested form may be a part): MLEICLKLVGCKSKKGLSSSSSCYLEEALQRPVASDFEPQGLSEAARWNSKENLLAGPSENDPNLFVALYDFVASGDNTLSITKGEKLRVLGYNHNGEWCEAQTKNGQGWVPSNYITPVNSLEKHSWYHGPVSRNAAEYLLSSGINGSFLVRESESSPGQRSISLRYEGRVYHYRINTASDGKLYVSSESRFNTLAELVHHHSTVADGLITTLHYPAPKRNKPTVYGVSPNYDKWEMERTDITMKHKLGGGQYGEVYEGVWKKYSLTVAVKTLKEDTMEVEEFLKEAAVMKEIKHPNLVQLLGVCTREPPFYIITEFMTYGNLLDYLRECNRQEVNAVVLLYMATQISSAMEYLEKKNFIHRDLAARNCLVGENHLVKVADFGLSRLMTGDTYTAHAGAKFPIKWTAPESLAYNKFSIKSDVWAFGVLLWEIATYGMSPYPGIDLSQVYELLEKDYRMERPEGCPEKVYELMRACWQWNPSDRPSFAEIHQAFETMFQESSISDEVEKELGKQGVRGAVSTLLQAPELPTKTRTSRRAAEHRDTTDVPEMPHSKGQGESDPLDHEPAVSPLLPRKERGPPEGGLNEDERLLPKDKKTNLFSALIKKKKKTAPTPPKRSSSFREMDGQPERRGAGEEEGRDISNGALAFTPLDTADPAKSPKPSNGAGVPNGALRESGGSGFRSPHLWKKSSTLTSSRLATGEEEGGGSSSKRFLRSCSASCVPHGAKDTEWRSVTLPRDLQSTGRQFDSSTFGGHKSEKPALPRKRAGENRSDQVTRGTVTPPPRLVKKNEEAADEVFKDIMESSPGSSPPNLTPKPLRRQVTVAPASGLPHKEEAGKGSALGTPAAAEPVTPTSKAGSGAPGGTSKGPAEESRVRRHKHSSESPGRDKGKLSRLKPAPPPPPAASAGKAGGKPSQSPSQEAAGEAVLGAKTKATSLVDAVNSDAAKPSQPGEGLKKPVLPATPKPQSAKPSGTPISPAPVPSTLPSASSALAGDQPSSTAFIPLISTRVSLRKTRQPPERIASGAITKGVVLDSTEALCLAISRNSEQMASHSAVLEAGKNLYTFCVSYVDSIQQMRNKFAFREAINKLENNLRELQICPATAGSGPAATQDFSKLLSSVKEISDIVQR
Sequence (P11274 whole entry, further chain, the tested form may be a part): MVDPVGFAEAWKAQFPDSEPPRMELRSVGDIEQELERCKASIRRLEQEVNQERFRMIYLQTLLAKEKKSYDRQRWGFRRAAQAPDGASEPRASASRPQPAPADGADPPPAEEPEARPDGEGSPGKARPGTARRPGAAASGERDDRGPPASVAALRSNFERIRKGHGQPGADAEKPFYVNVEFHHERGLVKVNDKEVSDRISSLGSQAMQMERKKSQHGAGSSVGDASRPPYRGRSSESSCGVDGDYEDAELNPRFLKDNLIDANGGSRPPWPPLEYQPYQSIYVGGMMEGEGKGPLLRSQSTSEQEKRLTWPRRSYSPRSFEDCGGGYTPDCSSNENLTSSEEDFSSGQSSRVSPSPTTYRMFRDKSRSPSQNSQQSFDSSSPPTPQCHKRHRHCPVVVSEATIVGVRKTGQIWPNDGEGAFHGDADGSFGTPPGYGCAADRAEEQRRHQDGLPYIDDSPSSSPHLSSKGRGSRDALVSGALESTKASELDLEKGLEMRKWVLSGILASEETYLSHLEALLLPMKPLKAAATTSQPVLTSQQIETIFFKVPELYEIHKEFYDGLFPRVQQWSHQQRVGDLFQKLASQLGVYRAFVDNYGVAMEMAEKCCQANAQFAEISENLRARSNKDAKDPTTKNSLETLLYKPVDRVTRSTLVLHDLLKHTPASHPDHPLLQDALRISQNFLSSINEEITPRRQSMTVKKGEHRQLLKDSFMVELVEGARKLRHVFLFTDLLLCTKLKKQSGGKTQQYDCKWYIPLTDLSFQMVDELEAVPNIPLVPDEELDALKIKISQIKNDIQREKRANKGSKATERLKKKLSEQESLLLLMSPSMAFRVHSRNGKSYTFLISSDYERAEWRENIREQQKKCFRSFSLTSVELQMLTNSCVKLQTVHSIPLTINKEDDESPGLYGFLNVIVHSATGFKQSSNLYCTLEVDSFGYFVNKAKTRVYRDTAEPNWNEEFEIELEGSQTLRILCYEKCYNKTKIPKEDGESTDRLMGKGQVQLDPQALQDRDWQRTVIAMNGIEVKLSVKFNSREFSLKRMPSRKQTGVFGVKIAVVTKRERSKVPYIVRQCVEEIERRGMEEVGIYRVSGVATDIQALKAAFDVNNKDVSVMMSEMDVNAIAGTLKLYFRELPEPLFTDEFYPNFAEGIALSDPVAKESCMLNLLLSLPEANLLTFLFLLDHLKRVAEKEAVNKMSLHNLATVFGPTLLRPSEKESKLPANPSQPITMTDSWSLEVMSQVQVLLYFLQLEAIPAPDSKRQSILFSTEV
Test: Inhibition of wild type Bcr-Abl (unknown origin) using Abltide as substrate incubated for 1 hr by luminescence based ADP-glo assay
quantityKind: IC50 (nM)

Record excerpt, results attached:
CC(C)(C)OC[C@H](NC(=O)c1cccc(-c2cncc(C(=O)NC3CC3)c2)c1)C(=O)Nc1ccc(Cl)c(C(F)(F)F)c1 | 9.3
CC(C)(C)[C@H](NC(=O)c1cccc(-c2ccc(NS(C)(=O)=O)nc2)c1)C(=O)Nc1ccc(Cl)c(C(F)(F)F)c1 | 1.44
CC(C)(C)OC[C@H](NC(=O)c1ccc(-c2ccnc(C(=O)NC3CC3)c2)cc1)C(=O)Nc1ccc(Cl)c(C(F)(F)F)c1 | 11.4
CC(C)(C)OC[C@H](NC(=O)c1cccc(-c2ccc(NC(=O)C(C)(C)C)nc2)c1)C(=O)Nc1ccc(Cl)c(C(F)(F)F)c1 | 8.61
CC(C)(C)C(=O)Nc1ccc(-c2cccc(C(=O)N[C@@H](CO)C(=O)Nc3ccc(Cl)c(C(F)(F)F)c3)c2)cn1 | 7.29
CC(=O)Nc1cc(-c2ccc(C(=O)N[C@@H](CO)C(=O)Nc3ccc(Cl)c(C(F)(F)F)c3)cc2)ccn1 | 0.8

(I) CC(C)(C)OC[C@H](NC(=O)c1ccc(-c2ccnc(N)c2)cc1)C(=O)Nc1ccc(Cl)c(C(F)(F)F)c1
(II) CC(=O)Nc1cc(-c2ccc(C(=O)N[C@H](C(=O)Nc3ccc(Cl)c(C(F)(F)F)c3)C(C)(C)C)cc2)ccn1
Problem: Kindly identify which of I and II has the larger recorded IC50 value. Response format: the label of the selected entry.
Result: II
(II: 9.9 nM, I: 0.87 nM)
